# Test system: HEK-293T
# Method Description: Multiplex assay against HEK293T
# Type: toxicity, cell-based
# Settings: human, 12 h, 10 µM, compound concentration 10 uM, replicate 2
Give measured Population Fragmented Nuclei (%) for each item. Keep answers brief.
Write the answer as a number in %, unit excluded.

Dear colleague, I am looking for the recorded Population Fragmented Nuclei (%) of the following compound: N#Cc1cc(F)cc(-c2nc(-c3ccc(F)cn3)no2)c1
8

Same thing, different compound: CC[C@@H](C)Nc1nc(C)nc2c(-c3ccc(OC)nc3C)c(C)nn12
9

Same thing, different compound: Cc1c(CC(=O)O)c2cccnc2n1Cc1ccc(S(C)(=O)=O)cc1C(F)(F)F
11

Same thing, different compound: CCCCC(=O)N(Cc1ccc(-c2ccccc2-c2nnn[nH]2)cc1)[C@H](C(=O)O)C(C)C
5

Same thing, different compound: CC(C)c1noc(N2CCC(COc3ccc(-c4ccc(S(C)(=O)=O)cc4)nc3)CC2)n1
7

Same thing, different compound: Cc1noc(-c2ccc(-c3ccc(CC(=O)O)cc3)cc2)c1NC(=O)O[C@H](C)c1ccccc1Cl
8

Same thing, different compound: O=C(CCCc1ccccc1)Nc1nc2ccccc2c(=O)s1
7

Same thing, different compound: O=C(NCCN1CCC(n2c(=O)[nH]c3cc(Cl)ccc32)CC1)c1ccc(F)cc1 [HALOPEMIDE]
6

Same thing, different compound: Cl.N=C(N)NC(=O)Cc1c(Cl)cccc1Cl [GUANFACINE HYDROCHLORIDE]
8

Same thing, different compound: Cc1sc2c(c1C)C(c1ccc(Cl)cc1)=N[C@@H](CC(=O)NCCCCCCCCNC(=O)COc1cccc3c1C(=O)N(C1CCC(=O)NC1=O)C3=O)c1nnc(C)n1-2 (stereo partly specified)
8

Same thing, different compound: Br.CS(=O)(=O)Nc1c(O)ccc2c1CCCC2C1=NCCN1 (stereo unspecified)
6

Same thing, different compound: Cc1cccc(NC(=O)CN2CCC(c3ccccn3)CC2)c1.Cl.Cl
10

Same thing, different compound: CCCCC1=NC2(CCCC2)C(=O)N1Cc1ccc(-c2ccccc2-c2nnn[nH]2)cc1
6

Same thing, different compound: CC(=O)Nc1cccc2c1c(Sc1ccc(Cl)cc1)c(C)n2CC(=O)O
6

Same thing, different compound: N#Cc1c(Oc2cccc(OS(=O)(=O)CCCC(F)(F)F)c2)cccc1C(F)(F)F
6

Same thing, different compound: CC(C)COc1ccc(CNC(=O)N(Cc2ccc(F)cc2)C2CCN(C)CC2)cc1
7

src = ChEMBL document CHEMBL5058577
